Property measured: melting point

Given the molecule COc1ccc2[nH]cc(CC(=O)N3CCN(c4ccc(NC(=N)c5cccs5)cc4)CC3)c2c1 , write its reported melting point.
221 to 222 °C

Given the molecule CCCCCCCCCCCCn1nnc(CCC(=O)Nc2c(OC)cc(OC)cc2OC)n1 , write its reported melting point.
86 to 88 °C

Given the molecule c1ccc(CCN2CCN(c3n[nH]c4c3CCc3sccc3-4)CC2)cc1 , write its reported melting point.
145 to 147 °C

Given the molecule COc1cc(Cl)c2c(c1)CCN2c1cc(NC(C)C2CCC2)nc(C)n1 (centres undefined) , write its reported melting point.
125 to 128 °C

Given the molecule CCCc1c(OCCCOc2cc(NC(=O)C(=O)O)c(C)cc2Br)ccc(C(C)=O)c1O , write its reported melting point.
101 to 103 °C

Given the molecule CCOC(=O)c1ccc(NC(=O)NCCn2c(C)ccc2C)cc1 , write its reported melting point.
181 to 182 °C

Given the molecule C[C@@H]1CCCN1CCCN1CCN(CCN2CCCCC2)C1=C(C#N)C#N , write its reported melting point.
70 to 71 °C

Given the molecule CCCCCCCCCC(N)CCCCCCCCC(N)CCCCCCCCC (centres undefined) , write its reported melting point.
33 to 37 °C

Given the molecule CCC(CC)c1ccc(Cl)c2nc3n(c12)CCCCN3c1ncc(C(C)=O)cc1C , write its reported melting point.
142 °C

---

Please respond with reported melting point for every item in the list.

Given the compound O=c1[nH]c2ccc(Cl)cc2c2nc(-c3cccnc3)nn12 , write its reported melting point.
189 to 193 °C

Given the compound CC(=O)Nc1cccc(-c2ccc3nncn3n2)c1 , write its reported melting point.
248 to 250 °C

Given the compound CC(O)CNc1c(Br)cnc2cc(Cl)ccc12 (centres undefined) , write its reported melting point.
161 to 163 °C

Given the compound CCCC[C@H]1COC(c2ccc(OCCCCCCCc3cc(C)no3)cc2)=N1 , write its reported melting point.
122 to 123 °C

Given the compound CC(C)(C)C(=O)Nc1nn(-c2ccc(F)cc2F)c2c1C1CCC2C1 (centres undefined) , write its reported melting point.
136 to 138 °C

Given the compound O=c1[nH]c(N2CCN(CCCCN3CCCCC3)CC2)cc2c(Cl)cccc12 , write its reported melting point.
172 to 173 °C

Given the compound CCCCCCNCCCS(=O)(=O)O , write its reported melting point.
144 to 147 °C

Given the compound COc1ccc(-c2cccc(C(=O)O)c2)c2cc(Cc3cccc(C(F)(F)F)c3)oc12 , write its reported melting point.
118 to 119 °C

Given the compound Cc1cc(C)c(N2CCCc3c2nn(C)c3N)c(Cl)c1 , write its reported melting point.
234 to 236 °C

Given the compound O=C(O)C(O)N1C(=O)CCN1c1cccc(C(F)(F)F)c1 (centres undefined) , write its reported melting point.
142 to 144 °C

Given the compound Cc1nnc(NC(=O)C(c2ccccc2)c2ccccc2)o1 , write its reported melting point.
160 to 161 °C

Given the compound O=C(CN1CCN(c2ccc(F)cc2)CC1)CN1CCN(c2ccc(F)cc2)CC1 , write its reported melting point.
106 to 107 °C

Given the compound CC1(C)C=C(c2ccccn2)c2ccccc2O1 , write its reported melting point.
80 to 82 °C

Given the compound CCC(C)Nc1ccc2n[nH]c(=O)n2n1 (centres undefined) , write its reported melting point.
214 to 216 °C

Given the compound Fc1cc(-n2cc(CN=C=S)nn2)cc(F)c1N1CCOCC1 , write its reported melting point.
135 °C

Given the compound Cc1c(CCC(=O)O)oc2cccc(O)c12 , write its reported melting point.
114 to 117 °C

Given the compound CCCCCCCCCCCCSCN(O)CSCCCCCCCCCCCC , write its reported melting point.
63 to 65 °C

Given the compound O=[N+]([O-])c1cn(-c2cccnc2)nc1C(F)(F)F , write its reported melting point.
121 to 123 °C

Given the compound COc1ccc(-c2nc(C(=O)NC3CCN(Cc4ccccc4)CC3)sc2-c2ccc(OC)cc2)cc1 , write its reported melting point.
130 to 131 °C

Given the compound C[C@@H](Cc1c2n(c3ccc(O)cc13)CCC2)NC(=O)OC(C)(C)C , write its reported melting point.
135 to 136 °C

Given the compound O=C1c2ccccc2C(=O)N1CC(=O)N1c2ccccc2N(Cc2ccccc2)C(=O)CC1C=Cc1ccccc1 (centres undefined) , write its reported melting point.
183 to 184 °C

Given the compound Cc1cc(C)n(-c2ccc(C(N)=O)nn2)n1 , write its reported melting point.
256 to 257 °C

Given the compound CSc1ncc2c(n1)N(Cc1ccc(F)c(F)c1)c1ccccc1-n1nnnc1-2 , write its reported melting point.
281 to 283 °C

Given the compound CCCCCCCCCCCCCCCCSCC(CO)OC(=O)NC (centres undefined) , write its reported melting point.
53 to 55 °C

Given the compound COC(=O)C(=CN(C)C)N(C)c1cccc(-c2ccc(Cl)cc2)n1 , write its reported melting point.
101 °C

Given the compound Cc1nccn1-c1nn(Nc2cnccn2)nc1-c1cccc(C#N)c1 , write its reported melting point.
276 °C

Given the compound O=C(Nc1c(Cl)ccc2nc(N3CCNCC3)ccc12)C1(C2CCCCC2)CC1 , write its reported melting point.
219 °C

Given the compound COc1ccc2c(c1)c(C=O)cn2CCCCl , write its reported melting point.
75 to 76 °C

Given the compound CC(=O)CC(=O)Nc1nc(C)c(C)s1 , write its reported melting point.
191 to 193 °C

Given the compound CC1(CCC(=O)O)CC(=O)c2ccc(OCc3cccc(OCc4ccc5ccccc5n4)c3)cc2O1 (centres undefined) , write its reported melting point.
152 to 154 °C

Given the compound CCC1C(=O)N(CC)CCc2cc(Nc3ncc(Cl)c(N[C@@H]4CCCC[C@H]4NS(C)(=O)=O)n3)c(OC)cc21 (some centres undefined) , write its reported melting point.
126 to 127 °C

Given the compound O=C(O)C(Cc1ccccc1)NC(=S)Cc1cccc2ccccc12 (centres undefined) , write its reported melting point.
130 to 132 °C

Given the compound ClCCCOc1ccccc1Nc1nc(Cl)nc2c1ncn2C1CCCC1 , write its reported melting point.
110 to 112 °C

Given the compound CC(NCc1ccccc1)N(Cc1ccccc1)CC(C)[N+](=O)[O-] (centres undefined) , write its reported melting point.
49.5 to 50 °C

---

Property measured: melting point

Given the molecule COc1cc(C2CCN(C[C@H](O)CO)CC2)ccc1Nc1ncc2ccc(-c3cccc(S(=O)(=O)NC(C)(C)C)c3)n2n1 , write its reported melting point.
192 to 220 °C

Given the molecule N#Cc1ccc(-c2ccc(OC3SCC(O)C(O)C3O)c(F)n2)cn1 (stereo not drawn) , write its reported melting point.
158 to 162 °C

Given the molecule CCN(CC)c1ccc(N=Nc2ccc(OCCOC)c(S(=O)(=O)Cl)c2)cc1 , write its reported melting point.
103 to 104 °C

Given the molecule CC(=O)N1CCCC(C(=O)c2ccc(N3CCCCC3)cc2)C1 (stereo not drawn) , write its reported melting point.
116 to 120 °C

Given the molecule CC1=CC(NC(=O)OC(C)(C)C)C(C(=O)O)CC1 (stereo not drawn) , write its reported melting point.
132 to 136 °C

Given the molecule Cc1cc(C)c(N2CCC2=O)cc1NS(=O)(=O)C(F)(F)F , write its reported melting point.
137 to 139 °C

Given the molecule Cc1cc(Nc2ccc(Cl)cc2)nc(-n2ncc3ccccc32)n1 , write its reported melting point.
167 to 169 °C

Given the molecule Cc1cc(C)c(C)c(OC(C)(C)C(=O)O)c1 , write its reported melting point.
91 to 94 °C

---

Property measured: melting point

Given the compound COc1ccc(S(=O)(=O)Nc2cnccc2Nc2ccccc2)cc1 , write its reported melting point.
201 to 202 °C

Given the compound CS(=O)c1c(C(F)(F)F)nn(-c2c(Cl)cc(C(F)(F)F)cc2Cl)c1N (stereo not given) , write its reported melting point.
142 to 145 °C

Given the compound Cc1ccc(Nc2ncccc2N)c(C)c1[N+](=O)[O-] , write its reported melting point.
173 to 175 °C

Given the compound CCCNC(=S)NS(=O)(=O)c1c(NC(=O)OCC)sc(C)c1C#N , write its reported melting point.
167 to 168 °C

Given the compound O=C(O)c1cc(S)n2ncnc2n1 , write its reported melting point.
230 to 232 °C

---

Please respond with reported melting point for every item in the list.

Given the compound CCOC(=O)C(=O)NNC(=O)c1cc(C)cc(C)c1 , write its reported melting point.
159 °C

Given the compound CCCC(=O)NN=C(C)c1ccncc1Cl , write its reported melting point.
104 °C

Given the compound Brc1cc2c(cn1)[nH]c1ccccc12 , write its reported melting point.
300 °C

Given the compound COc1ccccc1NC1CN([C@H]2CC[C@@H](c3c[nH]c4ccccc43)CC2)C1 , write its reported melting point.
67 to 70 °C

Given the compound Nc1ccc(N2CCC(N3CCOCC3)CC2)c(C(F)(F)F)c1 , write its reported melting point.
118 to 120 °C

Given the compound CCNC(=S)NS(=O)(=O)c1cc(CCNC(=O)C=Cc2ccc(OC)cc2OC)ccc1OCCOC , write its reported melting point.
146 to 148 °C

Given the compound COC(=O)CCNC(=O)C1CCCN1C(=O)OCc1ccccc1 (stereo not drawn) , write its reported melting point.
55 °C

Given the compound CC(=O)Oc1ccc(-c2cnc(NS(=O)(=O)Cc3ccccc3)c(Cc3ccccc3)n2)cc1 , write its reported melting point.
240 to 241 °C

Given the compound CC(C)c1nn(Cc2ccc(Cl)cc2Cl)cc1CCCOc1cc(CCC(=O)O)n(-c2ccccc2)n1 , write its reported melting point.
105 to 107 °C

Given the compound CCOC(=O)CC(c1ccccc1)c1ccc(NC(=O)NCCCl)cc1 (stereo not drawn) , write its reported melting point.
109 to 111 °C

Given the compound Cc1ccc(S(=O)(=O)Cc2c(C(F)(F)F)nn(C)c2O)cc1 , write its reported melting point.
135 °C

Given the compound O=C(O)[C@H](Cc1ccccc1)NC(=O)N1CCOCC1 , write its reported melting point.
57 to 60 °C

Given the compound Brc1cccc2[nH]cc(Sc3ccccc3)c12 , write its reported melting point.
137 to 139 °C
